Data origin, for the record: patent US9051310B2

# SYSTEM: glutathione S-transferase (GST)-linked full-length human Syk protein (Homo sapiens, UniProt P43405)
pIC50: −log10 of the molar value.
PROPERTY MEASURED: pIC50

Dear colleague, could you send me pIC50 for each of the items below? Thanks.
1. COCCn1nc(C)c2cc(Nc3nc(N[C@@H]4CCOC[C@@H]4N)c(F)cc3C(N)=O)ccc21
2. COC[C@@H](Nc1nc(Nc2cc(F)c3c(c2)c(OC)nn3C)c(C(N)=O)cc1F)[C@H](C)N
3. COCCn1nc(OC(F)F)c2cc(Nc3nc(N[C@@H]4CCOC[C@@H]4N)c(F)cc3C(N)=O)ccc21
4. CCOC[C@@H](Nc1nc(Nc2ccc3c(cnn3CC)c2)c(C(N)=O)cc1F)[C@H](C)N
5. Cc1nn(-c2cncc(Nc3nc(N[C@H](C4CC4)[C@H](C)N)c(F)cc3C(N)=O)c2)nc1C
6. CN(C)c1nn(C)c2ncc(Nc3nc(N[C@@H]4CCOC[C@@H]4N)c(F)cc3C(N)=O)cc12
7. Cn1nc(OC(F)F)c2cc(Nc3nc(N[C@@H]4CCCC[C@@H]4N)c(F)cc3C(N)=O)ccc21

1. > 8.00
2. > 8.00
3. > 8.00
4. > 8.00
5. 7.00 to 7.30
6. 7.30 to 8.00
7. > 8.00
